- target-entity: Programmed Death 1 (PD-1) (UniProt Q15116 25-167, limits assumed)
- Sequence (Q15116 25-167 limits assumed): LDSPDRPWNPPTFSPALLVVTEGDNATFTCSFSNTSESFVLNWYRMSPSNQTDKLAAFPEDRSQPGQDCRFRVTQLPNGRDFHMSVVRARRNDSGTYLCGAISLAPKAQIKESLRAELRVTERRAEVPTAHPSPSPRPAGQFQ
- test-details: rank in competition binding against labelled murine mAb BAP049, 1st experiment
What Competition Binding 1st exp. (rank) was measured for each of the following?
Please respond with the number in rank and leave the unit unwritten.

What Competition Binding 1st exp. (rank) value was documented for this binder, BAP049-hum03 (antibody, human IgG4 S228P, kappa, V domains shown, also called clone 3) VH: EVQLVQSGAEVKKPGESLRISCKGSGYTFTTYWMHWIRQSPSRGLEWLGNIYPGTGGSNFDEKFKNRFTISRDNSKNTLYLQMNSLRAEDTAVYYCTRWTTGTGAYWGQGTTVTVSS VL: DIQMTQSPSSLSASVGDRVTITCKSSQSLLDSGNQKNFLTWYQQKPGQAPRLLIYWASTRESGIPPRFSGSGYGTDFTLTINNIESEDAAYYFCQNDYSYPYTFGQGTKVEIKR ?
8

Same for BAP049-hum12 (antibody, human IgG4 S228P, kappa, V domains shown, also called clone 12) VH: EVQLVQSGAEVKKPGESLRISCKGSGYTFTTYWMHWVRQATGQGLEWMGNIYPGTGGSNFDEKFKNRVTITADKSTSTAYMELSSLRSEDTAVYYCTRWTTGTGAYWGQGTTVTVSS VL: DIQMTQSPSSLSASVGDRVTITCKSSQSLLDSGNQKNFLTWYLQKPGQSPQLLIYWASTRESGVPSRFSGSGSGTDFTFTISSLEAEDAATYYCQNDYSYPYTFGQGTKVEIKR
8

Same for BAP049-hum16 (antibody, human IgG4 S228P, kappa, V domains shown, also called clone 16) VH: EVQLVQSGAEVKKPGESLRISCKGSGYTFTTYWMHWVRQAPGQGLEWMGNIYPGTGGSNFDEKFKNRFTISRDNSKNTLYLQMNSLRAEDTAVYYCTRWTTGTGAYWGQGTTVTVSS VL: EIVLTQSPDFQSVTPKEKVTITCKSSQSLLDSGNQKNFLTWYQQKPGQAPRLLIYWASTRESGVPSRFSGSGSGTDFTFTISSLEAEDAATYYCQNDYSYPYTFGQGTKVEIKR
16

Same for BAP049-hum05 (antibody, human IgG4 S228P, kappa, V domains shown, Humanized mAb) VH: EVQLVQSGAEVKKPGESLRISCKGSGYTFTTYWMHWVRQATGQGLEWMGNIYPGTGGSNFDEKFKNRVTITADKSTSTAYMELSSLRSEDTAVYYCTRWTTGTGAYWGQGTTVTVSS VL: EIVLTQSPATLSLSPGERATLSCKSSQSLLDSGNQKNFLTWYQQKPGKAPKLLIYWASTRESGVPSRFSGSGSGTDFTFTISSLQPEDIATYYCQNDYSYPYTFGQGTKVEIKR
5

Same for BAP049-hum01 (antibody, human IgG4 S228P, kappa, V domains shown, Humanized mAb) VH: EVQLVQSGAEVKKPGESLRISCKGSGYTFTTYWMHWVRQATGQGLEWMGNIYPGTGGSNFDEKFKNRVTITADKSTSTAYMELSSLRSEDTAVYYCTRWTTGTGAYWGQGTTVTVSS VL: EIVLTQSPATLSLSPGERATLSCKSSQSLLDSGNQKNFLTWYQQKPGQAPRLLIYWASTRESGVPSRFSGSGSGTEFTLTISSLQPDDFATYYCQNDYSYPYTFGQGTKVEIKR
7

Same for BAP049-hum04 (antibody, human IgG4 S228P, kappa, V domains shown, also called clone 4) VH: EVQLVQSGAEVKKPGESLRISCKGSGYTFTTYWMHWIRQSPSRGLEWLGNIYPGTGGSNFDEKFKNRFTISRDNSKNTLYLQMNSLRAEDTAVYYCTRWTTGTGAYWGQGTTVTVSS VL: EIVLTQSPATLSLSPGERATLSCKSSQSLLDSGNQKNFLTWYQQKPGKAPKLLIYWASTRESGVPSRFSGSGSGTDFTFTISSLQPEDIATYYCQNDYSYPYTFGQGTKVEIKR
15

Same for BAP049-hum02 (antibody, human IgG4 S228P, kappa, V domains shown, also called clone 2) VH: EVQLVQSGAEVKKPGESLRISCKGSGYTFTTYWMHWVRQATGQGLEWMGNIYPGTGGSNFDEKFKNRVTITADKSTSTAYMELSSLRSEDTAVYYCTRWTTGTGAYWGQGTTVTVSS VL: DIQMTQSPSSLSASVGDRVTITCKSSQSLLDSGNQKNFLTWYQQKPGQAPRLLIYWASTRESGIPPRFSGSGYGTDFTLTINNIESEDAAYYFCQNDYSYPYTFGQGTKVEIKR
3
